Test system: LXRb homodimer (NR concentration 270 nM)
Experiment: PBM binding z-score (relative to random genomic background probes); higher = stronger binding; sequences stand for … in GC…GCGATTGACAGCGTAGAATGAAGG
Each entry below carries its recorded PBM binding z-score.
measure: PBM binding z-score

1) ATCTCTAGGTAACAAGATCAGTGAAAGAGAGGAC    0.596
2) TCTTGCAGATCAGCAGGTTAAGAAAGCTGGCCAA    -1.04
3) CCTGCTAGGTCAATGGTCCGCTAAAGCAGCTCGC    -0.102
4) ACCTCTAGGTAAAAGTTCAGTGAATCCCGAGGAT    -0.0602
5) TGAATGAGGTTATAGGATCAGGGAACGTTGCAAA    -0.108
6) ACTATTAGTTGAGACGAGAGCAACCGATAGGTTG    0.14
7) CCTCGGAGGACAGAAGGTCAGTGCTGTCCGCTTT    -0.597
8) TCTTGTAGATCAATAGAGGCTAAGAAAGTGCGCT    -0.421
9) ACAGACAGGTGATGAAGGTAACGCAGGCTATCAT    -0.516
10) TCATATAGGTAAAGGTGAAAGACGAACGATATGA    0.0599
11) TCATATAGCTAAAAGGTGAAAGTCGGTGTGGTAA    -0.577
12) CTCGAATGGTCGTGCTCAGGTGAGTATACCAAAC    -0.231
13) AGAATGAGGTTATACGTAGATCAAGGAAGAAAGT    0.172
14) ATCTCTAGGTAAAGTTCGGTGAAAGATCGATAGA    0.935
15) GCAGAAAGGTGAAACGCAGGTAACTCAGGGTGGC    -1.18
16) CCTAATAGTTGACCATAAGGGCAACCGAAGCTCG    0.214
